target.or.system: human alpha1 nicotinic acetylcholine (nACh) receptor (Homo sapiens, UniProt P02708+Q07001)
Sequence (P02708 21-457): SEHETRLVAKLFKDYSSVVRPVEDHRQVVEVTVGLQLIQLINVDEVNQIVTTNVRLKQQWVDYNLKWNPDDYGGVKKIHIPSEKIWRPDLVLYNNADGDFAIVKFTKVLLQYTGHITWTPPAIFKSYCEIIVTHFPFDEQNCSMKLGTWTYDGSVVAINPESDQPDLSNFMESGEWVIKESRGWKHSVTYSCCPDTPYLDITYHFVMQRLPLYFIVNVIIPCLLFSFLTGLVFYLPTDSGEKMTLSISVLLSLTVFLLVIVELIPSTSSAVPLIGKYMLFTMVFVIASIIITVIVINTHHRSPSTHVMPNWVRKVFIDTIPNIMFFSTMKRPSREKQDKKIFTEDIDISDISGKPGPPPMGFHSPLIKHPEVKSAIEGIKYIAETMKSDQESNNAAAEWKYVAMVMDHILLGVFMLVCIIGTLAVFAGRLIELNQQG
Sequence (P11230 24-501 partner): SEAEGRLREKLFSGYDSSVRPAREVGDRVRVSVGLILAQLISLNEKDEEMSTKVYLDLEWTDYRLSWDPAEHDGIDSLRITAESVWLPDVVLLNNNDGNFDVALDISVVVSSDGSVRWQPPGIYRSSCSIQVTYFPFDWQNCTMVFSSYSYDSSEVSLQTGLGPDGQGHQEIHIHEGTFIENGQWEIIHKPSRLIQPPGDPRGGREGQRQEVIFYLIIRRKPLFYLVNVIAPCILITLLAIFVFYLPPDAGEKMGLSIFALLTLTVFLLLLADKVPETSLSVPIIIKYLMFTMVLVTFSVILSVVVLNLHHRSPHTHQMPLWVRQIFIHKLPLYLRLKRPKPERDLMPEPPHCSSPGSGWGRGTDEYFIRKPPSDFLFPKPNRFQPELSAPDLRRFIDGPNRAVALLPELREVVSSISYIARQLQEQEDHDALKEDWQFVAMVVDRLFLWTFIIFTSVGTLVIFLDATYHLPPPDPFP
Sequence (Q07001 22-517): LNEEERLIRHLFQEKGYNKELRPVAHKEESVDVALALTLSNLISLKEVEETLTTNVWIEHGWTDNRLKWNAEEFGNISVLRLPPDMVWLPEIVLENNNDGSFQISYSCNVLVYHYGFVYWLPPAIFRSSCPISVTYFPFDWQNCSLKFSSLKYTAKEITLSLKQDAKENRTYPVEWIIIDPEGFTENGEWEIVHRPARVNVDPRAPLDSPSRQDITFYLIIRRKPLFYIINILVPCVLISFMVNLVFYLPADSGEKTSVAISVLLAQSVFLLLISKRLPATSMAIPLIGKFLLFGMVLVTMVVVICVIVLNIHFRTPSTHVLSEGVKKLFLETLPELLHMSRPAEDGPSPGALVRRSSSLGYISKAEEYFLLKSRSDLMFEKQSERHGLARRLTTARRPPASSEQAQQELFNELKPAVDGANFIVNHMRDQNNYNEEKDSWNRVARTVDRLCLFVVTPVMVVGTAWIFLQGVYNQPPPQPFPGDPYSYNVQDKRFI
protocol.summary: Nicotinic acetylcholine receptor antagonism assay, IONFlux automated patch clamp (Example 203)
condition.summary: nAChR antagonism; ACh stimulated; patch clamp
Below, each of the compounds is paired with its reported pIC50 value.
The scale used: pIC50 is minus the common logarithm of the concentration in molar units.

INSERT INTO results (chemical_string, measured_number) VALUES
  ('CC(C)N(C)[C@@H]1CC[C@H](N2CC[C@H](Nc3ncnc4ccc(C(F)(F)F)cc34)C2=O)[C@H](NC(=O)CCOCCNC(=O)CCOCCNC(=O)COCCNC(=O)[C@H]2CC(=O)N(C)[C@@H]2c2cccnc2)C1', 4.41);

Ask | Would you mind telling me what pIC50 value was observed for CC(C)N(C)[C@@H]1CC[C@H](N2CC[C@H](Nc3ncnc4ccc(C(F)(F)F)cc34)C2=O)[C@H](NC(=O)[C@H]2CC[C@@H](NC(=O)CCOCCNC(=O)CCNC(=O)CCNC(=O)[C@H]3CC(=O)N(C)[C@@H]3c3cccnc3)CC2)C1 ?
Reply | 4.12
